# Target Desc: sEH enzyme (human recombinant) (Homo sapiens)
# Construct: purchased Cayman Chemical
# Sequence (P34913 1-555): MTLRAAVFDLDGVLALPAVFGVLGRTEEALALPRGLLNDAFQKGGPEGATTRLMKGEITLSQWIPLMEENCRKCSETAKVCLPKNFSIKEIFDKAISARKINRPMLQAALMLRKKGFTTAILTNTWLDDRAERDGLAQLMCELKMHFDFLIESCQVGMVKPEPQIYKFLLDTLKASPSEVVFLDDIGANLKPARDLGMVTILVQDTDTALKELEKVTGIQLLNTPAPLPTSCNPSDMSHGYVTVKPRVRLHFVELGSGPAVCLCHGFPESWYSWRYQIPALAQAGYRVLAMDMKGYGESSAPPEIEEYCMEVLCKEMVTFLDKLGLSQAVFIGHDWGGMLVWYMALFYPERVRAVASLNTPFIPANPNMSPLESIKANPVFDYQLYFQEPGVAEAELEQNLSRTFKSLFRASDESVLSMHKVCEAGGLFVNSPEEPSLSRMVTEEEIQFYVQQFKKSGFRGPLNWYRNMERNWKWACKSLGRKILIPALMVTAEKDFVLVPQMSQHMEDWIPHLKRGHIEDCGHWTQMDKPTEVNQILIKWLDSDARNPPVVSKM
# Experiment Notes: in vitro sEH enzyme activity by fluorescence analysis, single concentration inhibition
# Assay type: biochemical
# Particulars: compound 0.1 μM; human recombinant sEH; PHOME substrate; 37° C. 15 min; read-out: sEH % inhibition, @ 0.1 μM
Result Type: inhibition at 0.1 µM
Express your answer as a number followed by its unit.

Query string: Entry under review: O=C(Nc1ccc(Cl)cc1)Nc1ccc2nc(NC(=O)Nc3ccc(Cl)cc3)sc2c1 [Example 7] . Reported inhibition at 0.1 µM?
Result string: 59.9%

Query string: Entry under review: Nc1nc2ccc(NC(=O)Nc3ccc(Cl)cc3)cc2s1 [Example 1] . Reported inhibition at 0.1 µM?
Result string: 76.1%

Query string: Entry under review: CCc1ccc(NC(=O)N(CCN2CCOCC2)c2ccc3nc(N)sc3c2)cc1 [Example 18] . Reported inhibition at 0.1 µM?
Result string: 84.7%

Query string: Entry under review: O=C(Nc1nc2ccc(N(CCN3CCOCC3)C(=O)Nc3ccc(Cl)cc3)cc2s1)c1ccccc1 [Example 32] . Reported inhibition at 0.1 µM?
Result string: 77.6%
